Molecular target: UniProt P09917
Sequence (P09917 1-674): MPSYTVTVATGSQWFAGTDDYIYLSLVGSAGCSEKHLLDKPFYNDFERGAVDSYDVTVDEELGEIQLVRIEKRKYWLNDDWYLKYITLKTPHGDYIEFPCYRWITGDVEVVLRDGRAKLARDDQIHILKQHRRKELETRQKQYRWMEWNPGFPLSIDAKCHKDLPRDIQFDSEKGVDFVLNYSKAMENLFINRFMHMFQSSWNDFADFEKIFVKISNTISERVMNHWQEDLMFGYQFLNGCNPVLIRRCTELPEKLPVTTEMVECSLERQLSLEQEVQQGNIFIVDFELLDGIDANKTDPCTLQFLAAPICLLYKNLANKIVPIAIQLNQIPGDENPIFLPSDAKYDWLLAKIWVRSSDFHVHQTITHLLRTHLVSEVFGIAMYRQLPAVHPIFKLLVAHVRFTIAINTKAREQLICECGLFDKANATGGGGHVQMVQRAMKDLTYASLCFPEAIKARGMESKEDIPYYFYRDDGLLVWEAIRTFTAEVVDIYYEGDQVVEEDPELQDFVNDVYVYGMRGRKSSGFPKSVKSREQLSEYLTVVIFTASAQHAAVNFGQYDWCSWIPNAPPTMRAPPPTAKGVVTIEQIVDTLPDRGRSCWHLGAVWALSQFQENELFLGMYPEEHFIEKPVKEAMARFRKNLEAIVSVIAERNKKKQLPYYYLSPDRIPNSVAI
pIC50: −log10 of the molar value.
Observed Property: pIC50

As a guide, the following entries are already answered.
> print(dat)
                            chemical.string  experimental.result
1  Cc1nc2cccc(C)n2c1CNc1ccc(N2CCN(c3ccc(F)cc3)CC2)cc1               > 6.00
2  CCc1nc2ncccn2c1CNc1ccc(N2CCN(c3ccc(F)cc3)CC2)cc1               > 6.00
3  CCc1nc2ccc(Cl)cn2c1C(=O)N(C)Cc1ccc(Oc2ccc(F)cc2)cc1         4.70 to 6.00

Read the next record carefully.
query: May I ask what pIC50 has been recorded for CCc1nc2cnccn2c1C(=O)N1CCC(OCc2ccc(OC(F)(F)F)cc2)CC1 ?
result: < 4.70

* * *

Measured inhibition at 10 µM of individual entries
target: Human 5-lipoxygenase (Homo sapiens, UniProt P09917); construct: purchased Cayman 60402; host or cells: insect cells; test: Activity of compounds against 5-LO enzyme (LTB4 measurement and/or fluorescence method); type: biochemical; conditions: 5-LO, single concentration of 10 uM in duplicate

Solved cases below.
> print(dat)
                                   molecule                             system.tested  experimental.result
1  O=C(NCc1ccccc1)c1c(C2CC2)nc2ccccn12 [compound 38]  Human 5-lipoxygenase (Homo sapiens, UniProt P09917)                < 40%
2  CCc1nc2ccc(Cl)cn2c1C(=O)NCC1CCCc2c1cnn2-c1ccc(OC(F)(F)F)cc1 (stereo not drawn) [compound 147]  Human 5-lipoxygenase (Homo sapiens, UniProt P09917)            40 to 69%
3  CCc1nc2c(F)cccn2c1C(=O)NCc1ccc(Oc2ccc(OC(F)(F)F)cc2)cc1 [compound 224]  Human 5-lipoxygenase (Homo sapiens, UniProt P09917)                > 69%
4  CCc1nc2ccc(Cl)cn2c1C(=O)NCc1cccc(N(C)Cc2ccc(OC(F)(F)F)cc2)c1 [compound 352]  Human 5-lipoxygenase (Homo sapiens, UniProt P09917)                < 40%
5  CCc1nc2ccc(Cl)cn2c1C(=O)NCc1ccc(N2CCOCC2)c(Cl)c1 [compound 302]  Human 5-lipoxygenase (Homo sapiens, UniProt P09917)                < 40%

Read the next record carefully.
query: For CCc1nc2ccc(C)cn2c1C(=O)NCc1ccc(Oc2ccc(OC(F)(F)F)cc2)cc1 [compound 232] , what is its reported inhibition at 10 µM?
result: > 69%
